Assay: Human HepG2 cell viability assay in 384 well format
Type: toxicity, cell-based
Set-up: dose 125 nL, time 70.5 hour; concentration not given beside the values
Conditions: HepG2 cells, read-out: Inhibition
Listed here: items and their measured cytotoxicity at 70.5 h.
READOUT: cytotoxicity at 70.5 h (%)

| COMPOUND | NUMBER |
| --- | --- |
| CN(Cc1ccncc1)Cc1cnn(-c2ccc(F)cc2)c1 | -13.3 |
| CNC(=O)COC1COC2(CCN(c3ccc(C#N)cc3)CC2)C1 (stereo unspecified) | -5.98 |
| CC(C)N(CCNC(=O)c1n[nH]c2ccccc12)C(C)C | -7.32 |
| CC(C)[C@@H]1CN(C2CCN(Cc3ccccc3)CC2)C[C@H]1NS(C)(=O)=O | 0.292 |
| Cc1ccc2c(c1)CN(C(=O)c1cccs1)C(CN(C)C)CO2 (stereo unspecified) | -2.45 |
| COc1ncccc1C(=O)N1CC[C@H]2C[C@@H](C)O[C@@H]2C1 | -21.5 |

----------
Listed here: items and their measured cytotoxicity at 70.5 h.
Assay: Human HepG2 cell viability assay in 384 well format
Format: toxicity, cell-based
Parameters: dose 125 nL, time 70.5 hour; concentration not given beside the values
Conditions: HepG2 cells, read-out: Inhibition

| COMPOUND | cytotoxicity at 70.5 h (%) |
| --- | --- |
| CC(C)n1ccnc1CN1CCCN(C(=O)CC2C=CCC2)CC1 (stereo not drawn) | 31.4 |
| Cn1ncc(NC(=O)c2noc3c2CCCC3)c1C(N)=O | -5.51 |
| COCC(=O)N1CCC(C(=O)Nc2ccc(S(N)(=O)=O)cc2)CC1 | -7.49 |
| COc1cc(CNCC(O)c2ccccc2)cc2c1OCO2 (stereo not drawn) | 3.15 |
| CC[C@@H](CO)Nc1cc(-c2cn[nH]c2)ncn1 | 3.42 |
| Cc1cc(C)n(C2CCCN(C(=O)c3c[nH]c(=O)c(Cl)c3)C2)n1 (stereo not drawn) | -8.77 |
| Cc1ccc(C(=O)NCC(O)c2ccc(Cl)s2)c(=O)[nH]1 (stereo not drawn) | -23.1 |
| CCNC(=O)[C@@H]1C[C@@H](NC(=O)c2cccnc2O)CN1Cc1ccsc1 | -11.2 |
| CNC(=O)c1cccnc1NCc1ccc(Cn2cccn2)cc1 | -3.1 |
| COCc1nc(C)cc(Nc2ccc3c(c2)CC(=O)N3)n1 | -7.41 |
| CCc1[nH]c2c(CNc3nccc(N)n3)cc(F)cc2c1C | 16.1 |
| COC(=O)c1ccc(S(=O)(=O)NCC(C)(O)c2cccs2)cc1 (stereo not drawn) | -9.34 |
| COc1ccc(NC(C)C(=O)N2CCCC2)cn1 (stereo not drawn) | -1.03 |

----------
Test: Human HepG2 cell viability assay in 384 well format
Type: toxicity, cell-based
Parameters: dose 125 nL, time 70.5 hour; concentration not given beside the values
Details: HepG2 cells, read-out: Inhibition
Listed here: items and their measured cytotoxicity at 70.5 h.

| MOLECULE | cytotoxicity at 70.5 h [%] |
| --- | --- |
| Cc1ccc(-n2cc(C(=O)NCC(C)Cn3cccn3)nn2)cc1 (stereo not drawn) | -14.5 |
| c1cncc(-c2noc(CNC3CCCN(c4cccnn4)C3)n2)c1 (stereo not drawn) | 24.9 |
| CN1CCN(Cc2cccnc2)C2(CCN(Cc3ccoc3)C2)C1=O (stereo not drawn) | 20.4 |
| CCCc1nn(C2CCCN(C(C)C)C2=O)c(=O)o1 (stereo not drawn) | -9.22 |
| Cc1cc(CN(C)C(=O)CN2CC3(CCNCC3)OC2=O)no1 | -15.9 |
| COc1nccnc1N1CCC2(CC1)C(=O)N(C)c1ccccc12 | -2.17 |
| O=C(CCn1ccc2ccc(Br)cc21)NCc1ccc(C(=O)O)cc1 | -21.2 |
| Cc1nnc(NC(=O)CN2CCc3c(nc(C(C)C)n3C)C2)s1 | -8.19 |
